# 8OG:A repair function score values compiled below
B1: library; numbered along this chain (parent)
chain: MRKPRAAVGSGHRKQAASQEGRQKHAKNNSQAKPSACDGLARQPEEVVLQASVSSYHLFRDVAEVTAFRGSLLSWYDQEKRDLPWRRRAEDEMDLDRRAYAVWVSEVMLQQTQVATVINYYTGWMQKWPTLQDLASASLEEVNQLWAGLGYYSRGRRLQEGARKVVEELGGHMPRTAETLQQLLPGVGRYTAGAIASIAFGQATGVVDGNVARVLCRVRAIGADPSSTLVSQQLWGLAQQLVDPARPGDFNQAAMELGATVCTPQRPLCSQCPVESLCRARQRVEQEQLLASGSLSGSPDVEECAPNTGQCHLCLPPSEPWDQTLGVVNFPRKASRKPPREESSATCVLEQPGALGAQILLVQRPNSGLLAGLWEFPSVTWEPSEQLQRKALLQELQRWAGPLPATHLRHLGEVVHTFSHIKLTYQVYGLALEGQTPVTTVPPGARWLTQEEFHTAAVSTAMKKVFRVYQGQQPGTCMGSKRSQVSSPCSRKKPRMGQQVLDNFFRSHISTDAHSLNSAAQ

# Variants of: B1
# assay_notes: 8OG:A repair function score (normalized; synonymous = 0, nonsense = -1) (normalized log-likelihood score); higher = more repair activity (WT-like);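 further: cells sorted at 72 h after reporter transfection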
# conditions_used: with 8OG:A DNA repair reporter (GFP) in HEK-293 MUTYH KO cells
Just the number.

variant_string=V328W assay_value=-0.0588
variant_string=Y428M assay_value=-0.656

The variant listed as R157E has a reported 8OG:A repair function score of -0.665

The variant listed as Q110G has a reported 8OG:A repair function score of 0.0252
